Listed next: entries and their corresponding ratio to parent.
B1: H2-Kb / B2 (parent)
chain 1: GEQVEQRPPHLSVREGDSAVIICTYTDPNSYYFFWYKQEPGAGLQLLMKVFSSTEINEGQGFTVLLNKKDKQLSLNLTAAHPGDSAVYFCAVSQMSNYNVLYFGSGTKLTVEP
chain 2: EAAVTQSPRNKVAVTGGKVTLSCNQTNNHNNMYWYRQDTGHGLRLIHYSYGAGSTEKGDIPDGYKASRPSQENFSLILELATPSQTSVYFCASGTGGSGQLYFGEGSKLTVL
chain 3: not shown
chain 4: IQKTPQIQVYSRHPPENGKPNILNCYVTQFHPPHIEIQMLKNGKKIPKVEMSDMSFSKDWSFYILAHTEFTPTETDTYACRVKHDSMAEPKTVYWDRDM
chain 5: SIINFEKL

- Variants of: B1
- Experiment: % of reporter cells activated (NFAT-GFP), raw; further: test concentration or dose not given here
- Condition description: with B2; scale: % of reporter cells activated
Measure: ratio to parent

[[record]]
mutation_spec = "chain 5 L8G"
measure = "ratio to parent"
numeric_readout = 0.849

[[record]]
mutation_spec = "chain 5 N4E"
measure = "ratio to parent"
numeric_readout = 0.416

[[record]]
mutation_spec = "chain 5 E6I"
measure = "ratio to parent"
numeric_readout = 0.67

[[record]]
mutation_spec = "chain 5 L8A"
measure = "ratio to parent"
numeric_readout = 8.62

[[record]]
mutation_spec = "chain 5 N4F"
measure = "ratio to parent"
numeric_readout = 0.557

[[record]]
mutation_spec = "chain 5 I2H"
measure = "ratio to parent"
numeric_readout = 0.93

[[record]]
mutation_spec = "chain 5 I2E"
measure = "ratio to parent"
numeric_readout = 0.654

[[record]]
mutation_spec = "chain 5 K7T"
measure = "ratio to parent"
numeric_readout = 1.99

[[record]]
mutation_spec = "chain 5 S1T"
measure = "ratio to parent"
numeric_readout = 1.02

[[record]]
mutation_spec = "chain 5 I2K"
measure = "ratio to parent"
numeric_readout = 1.18

[[record]]
mutation_spec = "chain 5 I2R"
measure = "ratio to parent"
numeric_readout = 1.36

[[record]]
mutation_spec = "chain 5 K7Q"
measure = "ratio to parent"
numeric_readout = 1.96

[[record]]
mutation_spec = "chain 5 S1Y"
measure = "ratio to parent"
numeric_readout = 6.51

[[record]]
mutation_spec = "chain 5 F5T"
measure = "ratio to parent"
numeric_readout = 0.632

[[record]]
mutation_spec = "chain 5 L8E"
measure = "ratio to parent"
numeric_readout = 0.551

[[record]]
mutation_spec = "chain 5 F5Q"
measure = "ratio to parent"
numeric_readout = 1.75

[[record]]
mutation_spec = "chain 5 F5W"
measure = "ratio to parent"
numeric_readout = 0.519

[[record]]
mutation_spec = "chain 5 E6V"
measure = "ratio to parent"
numeric_readout = 0.422

[[record]]
mutation_spec = "chain 5 I3M"
measure = "ratio to parent"
numeric_readout = 0.659

[[record]]
mutation_spec = "chain 5 E6S"
measure = "ratio to parent"
numeric_readout = 0.751

[[record]]
mutation_spec = "chain 5 N4G"
measure = "ratio to parent"
numeric_readout = 0.335

[[record]]
mutation_spec = "chain 5 I3Y"
measure = "ratio to parent"
numeric_readout = 0.476

[[record]]
mutation_spec = "chain 5 K7V"
measure = "ratio to parent"
numeric_readout = 12.4

[[record]]
mutation_spec = "chain 5 F5R"
measure = "ratio to parent"
numeric_readout = 0.476

[[record]]
mutation_spec = "chain 5 K7F"
measure = "ratio to parent"
numeric_readout = 4.64

[[record]]
mutation_spec = "chain 5 L8S"
measure = "ratio to parent"
numeric_readout = 1.08

[[record]]
mutation_spec = "chain 5 N4I"
measure = "ratio to parent"
numeric_readout = 0.557

[[record]]
mutation_spec = "chain 5 I3L"
measure = "ratio to parent"
numeric_readout = 0.724

[[record]]
mutation_spec = "chain 5 K7Y"
measure = "ratio to parent"
numeric_readout = 2.46

[[record]]
mutation_spec = "chain 5 F5Y"
measure = "ratio to parent"
numeric_readout = 7.49

[[record]]
mutation_spec = "chain 5 N4Q"
measure = "ratio to parent"
numeric_readout = 0.259

[[record]]
mutation_spec = "chain 5 K7M"
measure = "ratio to parent"
numeric_readout = 2.53

[[record]]
mutation_spec = "chain 5 I2F"
measure = "ratio to parent"
numeric_readout = 2.06

[[record]]
mutation_spec = "chain 5 E6K"
measure = "ratio to parent"
numeric_readout = 1.8

[[record]]
mutation_spec = "chain 5 I3N"
measure = "ratio to parent"
numeric_readout = 0.389

[[record]]
mutation_spec = "chain 5 I2Y"
measure = "ratio to parent"
numeric_readout = 0.87

[[record]]
mutation_spec = "chain 5 I2L"
measure = "ratio to parent"
numeric_readout = 4.69

[[record]]
mutation_spec = "chain 5 F5V"
measure = "ratio to parent"
numeric_readout = 0.346

[[record]]
mutation_spec = "chain 5 E6N"
measure = "ratio to parent"
numeric_readout = 0.535

[[record]]
mutation_spec = "chain 5 I2D"
measure = "ratio to parent"
numeric_readout = 1

[[record]]
mutation_spec = "chain 5 S1M"
measure = "ratio to parent"
numeric_readout = 5.85

[[record]]
mutation_spec = "chain 5 K7R"
measure = "ratio to parent"
numeric_readout = 1.97

[[record]]
mutation_spec = "chain 5 I2G"
measure = "ratio to parent"
numeric_readout = 0.876

[[record]]
mutation_spec = "chain 5 K7D"
measure = "ratio to parent"
numeric_readout = 3.15

[[record]]
mutation_spec = "chain 5 N4S"
measure = "ratio to parent"
numeric_readout = 0.422

[[record]]
mutation_spec = "chain 5 K7L"
measure = "ratio to parent"
numeric_readout = 2.05

[[record]]
mutation_spec = "chain 5 I3Q"
measure = "ratio to parent"
numeric_readout = 0.524

[[record]]
mutation_spec = "chain 5 N4Y"
measure = "ratio to parent"
numeric_readout = 0.481

[[record]]
mutation_spec = "chain 5 L8H"
measure = "ratio to parent"
numeric_readout = 2.32

[[record]]
mutation_spec = "chain 5 F5E"
measure = "ratio to parent"
numeric_readout = 0.573

[[record]]
mutation_spec = "chain 5 F5C"
measure = "ratio to parent"
numeric_readout = 3.54

[[record]]
mutation_spec = "chain 5 I3S"
measure = "ratio to parent"
numeric_readout = 0.4

[[record]]
mutation_spec = "chain 5 S1K"
measure = "ratio to parent"
numeric_readout = 2.57

[[record]]
mutation_spec = "chain 5 I3C"
measure = "ratio to parent"
numeric_readout = 0.795

[[record]]
mutation_spec = "chain 5 N4R"
measure = "ratio to parent"
numeric_readout = 0.324

[[record]]
mutation_spec = "chain 5 S1Q"
measure = "ratio to parent"
numeric_readout = 1.77

[[record]]
mutation_spec = "chain 5 F5P"
measure = "ratio to parent"
numeric_readout = 0.703

[[record]]
mutation_spec = "chain 5 K7G"
measure = "ratio to parent"
numeric_readout = 7.31

[[record]]
mutation_spec = "chain 5 N4H"
measure = "ratio to parent"
numeric_readout = 0.584

[[record]]
mutation_spec = "chain 5 E6P"
measure = "ratio to parent"
numeric_readout = 0.741

[[record]]
mutation_spec = "chain 5 N4L"
measure = "ratio to parent"
numeric_readout = 0.503

[[record]]
mutation_spec = "chain 5 L8C"
measure = "ratio to parent"
numeric_readout = 2.06

[[record]]
mutation_spec = "chain 5 I2M"
measure = "ratio to parent"
numeric_readout = 2.66

[[record]]
mutation_spec = "chain 5 L8N"
measure = "ratio to parent"
numeric_readout = 0.897

[[record]]
mutation_spec = "chain 5 F5K"
measure = "ratio to parent"
numeric_readout = 0.741

